System: K562 CRISPRi cells
Experiment: Perturb-seq pooled growth measurement (sgRNA counts, growth phenotype γ, relative activity)
Format: cell-based, human
Conditions: pooled growth phenotype γ of the Perturb-seq sgRNA, day 10, K562 CRISPRi cells
Please note: gamma_day10 exactly at -0.4 is rule not met. Only values below -0.4 get rule met.

Q. A record lists HSPA9_ −_137911079.23-P1P2_07 (guide GGAGCTGCGGGATGCGGTGG; listed as DNA, chemistry not fully specified) . Is its gamma_day10 below -0.4?
A. rule met

Q. Threshold test, gamma_day10 < -0.4: MTOR_ + _11322547.23-P1P2_00 (guide GGGCAGGGGGCCTGAAGCGG; listed as DNA, chemistry not fully specified)
A. rule met

Q. State whether -0.4 exceeds gamma_day10 recorded for SEC61A1_ −_127771295.23-P1_04 (guide GGCACTGAAGTGTCTCTCGG; listed as DNA, chemistry not fully specified) .
A. rule not met

Q. Hello, is gamma_day10 of the following substance strictly smaller than -0.4? EIF2S1_ −_67827080.23-P1P2_00 (guide GAGCGAAGCGCACGCTGAGG; listed as DNA, chemistry not fully specified)
A. rule met

Q. hey, is gamma_day10 for RPS18_ + _33239917.23-P1P2_01 (guide GCTGCAATGCCGCTGGATCA; listed as DNA, chemistry not fully specified) lower than -0.4 or not?
A. rule not met

Q. Strictly below -0.4 in gamma_day10? ALDOA_ + _30077139.23-P1P2_06 (guide GGTCACCAGGATCCCTTCTG; listed as DNA, chemistry not fully specified)
A. rule not met
